# Procedure text: Drug level in Sprague-Dawley rat bone marrow at 100 mg/kg/day, po for 11 days measured on 25 hrs after final administration
# Type: ADME, organism-based
# Parameters: route oral
# Measurement setup: read-out: Drug uptake

# Structure, concentration at 25 h
rows = [
    ("CC(C)(C)Cn1c(CN2C(=O)CC3(CCNCC3)C2=O)cc2cnc(C#N)nc21", "33.5 µM"),
    ("CC(C)(C)Cn1c(CN2C(=O)C3(CCNCC3)c3cc(F)ccc32)cc2cnc(C#N)nc21", "119 µM"),
    ("CN1C(=O)NC2(CCN(Cc3cc4cnc(C#N)nc4n3CC(C)(C)C)CC2)C1=O", "0.302 µM"),
    ("CC(C)(C)Cn1c(CN2CCC3(CC2)NC(=O)NC3=O)cc2cnc(C#N)nc21", "0.381 µM"),
    ("CCCN1CCC2(CC1)NC(=O)N(Cc1cc3cnc(C#N)nc3n1CC(C)(C)C)C2=O", "17.6 µM"),
    ("CCCN1C(=O)NC2(CCN(Cc3cc4cnc(C#N)nc4n3CC(C)(C)C)CC2)C1=O", "0.832 µM"),
    ("COc1ccc2c(c1)C1(CCNCC1)C(=O)N2Cc1cc2cnc(C#N)nc2n1CC(C)(C)C", "45.8 µM"),
]

====

# Procedure text: Bioavailability in Sprague-Dawley rat at 10 umol/5 mL/kg, po
# Type: ADME, organism-based
# Measurement setup: Sprague-Dawley, in vivo, 10 umol/5 mL/kg
Reported bioavailability values for the following compounds.

# Structure, bioavailability
records = [
    ("CCCN1CCC2(CC1)NC(=O)N(Cc1cc3cnc(C#N)nc3n1CC(C)(C)C)C2=O", "49%"),
    ("CC(C)(C)Cn1c(CN2CCC3(CC2)NC(=O)NC3=O)cc2cnc(C#N)nc21", "42%"),
    ("CCCN1C(=O)NC2(CCN(Cc3cc4cnc(C#N)nc4n3CC(C)(C)C)CC2)C1=O", "58%"),
    ("CN1C(=O)NC2(CCN(Cc3cc4cnc(C#N)nc4n3CC(C)(C)C)CC2)C1=O", "144%"),
]

====

Reported Drug uptake values for the following compounds.
# Procedure text: Ratio of drug level in bone marrow to serum in po dosed Sprague-Dawley rat
# Format: ADME, organism-based
# Measurement setup: in vivo
Assay metric: Drug uptake

# Structure, Endpoint result
data = [
    ("CC(C)(C)Cn1c(CN2C(=O)C3(CCNCC3)c3cc(F)ccc32)cc2cnc(C#N)nc21", 99),
    ("CC(C)(C)Cn1c(CN2CCC3(CC2)NC(=O)NC3=O)cc2cnc(C#N)nc21", 0.7),
    ("CCCN1CCC2(CC1)NC(=O)N(Cc1cc3cnc(C#N)nc3n1CC(C)(C)C)C2=O", 132),
    ("CCCN1C(=O)NC2(CCN(Cc3cc4cnc(C#N)nc4n3CC(C)(C)C)CC2)C1=O", 1.5),
    ("CC(C)(C)Cn1c(CN2C(=O)CC3(CCNCC3)C2=O)cc2cnc(C#N)nc21", 34.9),
    ("COc1ccc2c(c1)C1(CCNCC1)C(=O)N2Cc1cc2cnc(C#N)nc2n1CC(C)(C)C", 159),
    ("CN1C(=O)NC2(CCN(Cc3cc4cnc(C#N)nc4n3CC(C)(C)C)CC2)C1=O", 4.7),
]

FYI, the data here is from ChEMBL document CHEMBL1140037.
